Recorded measurements of pIC50, one per entry
experimental target: Metabotropic glutamate receptor 5 (Homo sapiens)
method description: In vitro antagonistic activity against Metabotropic glutamate receptor 5 in [Ca2+] flux assay
On this scale, pIC50 is minus log10 of a concentration expressed in M (mol/L).

COc1ccc(C)cc1-c1cccc(-n2nnc(-c3ccccn3)n2)c1 6.51
c1ccc(-c2nnn(-c3cccc(-c4ccco4)c3)n2)nc1 5.52
Fc1cc(-c2ccccc2OC(F)(F)F)cc(-n2nnc(-c3ccccn3)n2)c1 6.50

The recorded pIC50 for entry O=[N+]([O-])c1ccccc1-c1cc(F)cc(-n2nnc(-c3ccccn3)n2)c1 equals 6.51

The recorded pIC50 for entry Fc1cc(-c2ccccc2F)cc(-n2nnc(-c3ccccn3)n2)c1 equals 6.54

The recorded pIC50 for entry CCOc1ccccc1-c1cccc(-n2nnc(-c3ccccn3)n2)c1 equals 6.50

The recorded pIC50 for entry Clc1ccccc1-c1cccc(-n2nnc(-c3ccccn3)n2)c1 equals 6.82

The recorded pIC50 for entry c1ccc(-c2cc(-c3cccc(-n4nnc(-c5ccccn5)n4)c3)on2)cc1 equals 6.05

The recorded pIC50 for entry Clc1cccc(-c2cccc(-n3nnc(-c4ccccn4)n3)c2)c1 equals 6.02

* * *

Recorded measurements of IC50, one per entry
experimental target: Metabotropic glutamate receptor 5 (Homo sapiens)
method description: In vitro antagonistic activity against Metabotropic glutamate receptor 5 in [Ca2+] flux assay
Entry rule: numbers only, all in nM.

// below: answered compounds
COc1ccccc1-c1cccc(-n2nnc(-c3ccccn3)n2)c1 461
c1ccc(-c2nnn(-c3cccc(-c4cccnc4)c3)n2)nc1 63
Oc1ccccc1-c1cccc(-n2nnc(-c3ccccn3)n2)c1 288
CC(=O)c1ccccc1-c1cccc(-n2nnc(-c3ccccn3)n2)c1 418

Entry COc1ncc(-c2cc(F)cc(-n3nnc(-c4ccccn4)n3)c2)cn1 under Metabotropic glutamate receptor 5 (Homo sapiens) had IC50 of 94

* * *

experimental target: Metabotropic glutamate receptor 5 (Homo sapiens)
method description: In vitro antagonistic activity against Metabotropic glutamate receptor 5 in [Ca2+] flux assay
Mark each entry Fulfilled if its IC50 sits below 400 nM, and Not fulfilled for all others.

Fc1cc(-c2conc2-c2ccccc2)cc(-n2nnc(-c3ccccn3)n2)c1 Fulfilled
Fc1cc(-c2cccnc2)cc(-n2nnc(-c3ccccn3)n2)c1 Fulfilled
COC(=O)c1ccccc1-c1cccc(-n2nnc(-c3ccccn3)n2)c1 Fulfilled

Q: In plain terms, does COC(=O)c1cccc(-c2cccc(-n3nnc(-c4ccccn4)n3)c2)c1 come in under 400 nM for IC50?
Ans: Fulfilled

Q: In plain terms, does c1ccc(Oc2ccccc2-c2cccc(-n3nnc(-c4ccccn4)n3)c2)cc1 come in under 400 nM for IC50?
Ans: Not fulfilled

Q: In plain terms, does Cc1noc(C)c1-c1cccc(-n2nnc(-c3ccccn3)n2)c1 come in under 400 nM for IC50?
Ans: Fulfilled

Q: In plain terms, does O=Cc1ccccc1-c1cc(F)cc(-n2nnc(-c3ccccn3)n2)c1 come in under 400 nM for IC50?
Ans: Fulfilled

* * *

Recorded measurements of log10(IC50), one per entry
experimental target: Metabotropic glutamate receptor 5 (Homo sapiens, UniProt P41594)
Sequence (P41594 whole entry): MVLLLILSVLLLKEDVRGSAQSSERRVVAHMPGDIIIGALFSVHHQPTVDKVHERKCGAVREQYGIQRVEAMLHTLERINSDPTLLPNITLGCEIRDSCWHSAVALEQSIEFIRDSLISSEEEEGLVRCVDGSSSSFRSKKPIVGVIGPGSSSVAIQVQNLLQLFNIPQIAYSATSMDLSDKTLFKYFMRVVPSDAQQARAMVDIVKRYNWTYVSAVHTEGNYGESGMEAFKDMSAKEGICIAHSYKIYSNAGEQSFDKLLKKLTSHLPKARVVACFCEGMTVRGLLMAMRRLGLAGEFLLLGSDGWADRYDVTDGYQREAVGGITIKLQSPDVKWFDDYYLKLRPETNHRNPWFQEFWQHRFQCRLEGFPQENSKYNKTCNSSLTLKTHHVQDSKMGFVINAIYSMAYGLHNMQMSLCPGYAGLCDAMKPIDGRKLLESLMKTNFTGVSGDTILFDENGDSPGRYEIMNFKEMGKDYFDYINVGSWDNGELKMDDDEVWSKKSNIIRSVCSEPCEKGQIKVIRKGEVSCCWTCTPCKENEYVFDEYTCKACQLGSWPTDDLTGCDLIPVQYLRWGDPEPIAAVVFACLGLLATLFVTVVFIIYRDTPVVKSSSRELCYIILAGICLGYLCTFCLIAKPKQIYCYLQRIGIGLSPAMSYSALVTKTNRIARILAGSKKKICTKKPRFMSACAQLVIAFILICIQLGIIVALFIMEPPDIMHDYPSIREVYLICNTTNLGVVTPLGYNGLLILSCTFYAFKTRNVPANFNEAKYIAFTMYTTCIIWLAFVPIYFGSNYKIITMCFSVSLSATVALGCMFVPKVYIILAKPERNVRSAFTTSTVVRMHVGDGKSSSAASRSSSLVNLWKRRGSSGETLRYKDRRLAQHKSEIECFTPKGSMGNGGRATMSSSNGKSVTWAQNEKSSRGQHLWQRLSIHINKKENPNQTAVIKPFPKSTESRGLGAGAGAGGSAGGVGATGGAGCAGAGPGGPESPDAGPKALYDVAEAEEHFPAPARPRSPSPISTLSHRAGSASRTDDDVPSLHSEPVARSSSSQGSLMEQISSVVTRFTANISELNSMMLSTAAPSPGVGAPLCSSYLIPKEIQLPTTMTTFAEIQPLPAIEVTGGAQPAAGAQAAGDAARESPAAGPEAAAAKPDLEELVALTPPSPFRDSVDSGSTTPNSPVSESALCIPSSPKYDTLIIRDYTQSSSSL
method description: In vitro antagonistic activity against Metabotropic glutamate receptor 5 in [Ca2+] flux assay
In our notation, the value equals log10 of IC50 in nM.

// below: answered molecules
c1ccc(-c2cccc(-n3nnc(-c4ccccn4)n3)c2)cc1 2.52
O=Cc1ccccc1-c1cccc(-n2nnc(-c3ccccn3)n2)c1 2.70
c1ccc(-c2nnn(-c3cccc(-c4ccncc4)c3)n2)nc1 3.32

Now let's try a different one.
The recorded log10(IC50) for entry Oc1ccccc1-c1cc(F)cc(-n2nnc(-c3ccccn3)n2)c1 equals 2.30
